Test system: Hep 3B2
Test: Cytotoxicity against human Hep3B cells after 6 days by MTT assay
Type: functional, cell-based
Conditions: 144 h
Measured Metric: IC50 (µM)
Form entry: value (µM) — number only.

Some solved cases for reference:
>  <Compound>
O=C1COc2cccnc2N1Cc1cn(Cc2ccccc2)nn1

>  <IC50 [µM]>
8.7

$$$$
>  <Compound>
O=C1COc2ccc(Cl)cc2N1Cc1cn(Cc2ccccc2)nn1

>  <IC50 [µM]>
55.5

$$$$
>  <Compound>
CCOC(=O)Cn1cc(CN2C(=O)COc3ccccc32)nn1

>  <IC50 [µM]>
19

$$$$
>  <Compound>
O=C1COc2ccccc2N1Cc1cn(Cc2ccccc2)nn1

>  <IC50 [µM]>
84.5

$$$$
>  <Compound>
O=C1COc2ccccc2N1Cc1cn(Cc2cccc3ccccc23)nn1

>  <IC50 [µM]>
15.2

$$$$
>  <Compound>
O=C1COc2ccccc2N1Cc1cn(Cc2ccc([N+](=O)[O-])cc2)nn1

>  <IC50 [µM]>
29.6

$$$$
>  <Compound>
CCCC1Oc2ccccc2N(Cc2cn(Cc3ccccc3)nn2)C1=O (centres undefined)

>  <IC50 [µM]>
61.8

$$$$
>  <Compound>
CCOC(=O)c1ccc2c(c1)N(Cc1cn(Cc3ccccc3)nn1)C(=O)CO2

>  <IC50 [µM]>
17.1

$$$$
>  <Compound>
O=C1COc2cc(F)ccc2N1Cc1cn(Cc2ccccc2)nn1

>  <IC50 [µM]>
0.9

$$$$
>  <Compound>
O=C1COc2ccccc2N1Cc1cn(CCc2c[nH]c3ccccc23)nn1

>  <IC50 [µM]>
70

$$$$

Qu. API: value(readout= IC50, system= Hep 3B2, query= O=C1COc2ccccc2N1Cc1cn(CCc2ccccc2)nn1 )
Ans. 66

Qu. Then what about the compound O=C1COc2ccccc2N1Cc1cn(C/C=C/c2ccccc2)nn1 ?
Ans. 38.9
